# Assay Explanation: Cell toxicity / % cell viability by flow cytometry (cells in total events v. untreated)
# Assay type: cell-based, human
# Conditions: human, THP-1 cells, THP-1; Protocol C; shuttle 1 μM; GFP-NLS 5 μM; incubation time 30 sec; read-out: Cell viability (%) (±St. Dev.; n = 3)
Where no end group is shown, it is not given here.

Chain Sequence	viability at 0.5 min, 1 µM
YGRKKRRQRRRCWEAKLAKALAKALAKHLAKALAKALKACEA (cysteines drawn unpaired) [TAT-KALA]	70.3%

====

# Tested on: HeLa cells
# Assay Explanation: Cell toxicity / % cell viability by flow cytometry (cells in total events v. untreated)
# Format: cell-based, Human
# Conditions: HeLa; Protocol B; shuttle 50 μM; GFP-NLS 5 μM; 10 seconds
Where no end group is shown, it is not given here.
Listed sequences paired with reported Cell viability (%) (±St. Dev.; n = 3), FIG. 29E
Measured Property: Cell viability (%) (±St. Dev.; n = 3), FIG. 29E

Chain Sequence	Output Unit	Data Value
HHHHHHKWKLFKKIGAVLKVLTTGRRRRRRRRR [His-CM18-9Arg]	%	45.8
HHHHHHKWKLFKKIGAVLKVLTTGYARAAARQARA [His-CM18-PTD4]	%	92
HHHHHHKWKLFKKIGAVLKVLTTGYGRKKRRQRRR [His-CM18-TAT]	%	35.2
HHHHHHKWKLFKKIGAVLKVLTTGGWTLNSAGYLLKINLKALAALAKKIL [His-CM18-Transportan (TPT)]	%	41.3

====

Listed sequences paired with reported viability at 10 s, 50 µM
# Assay Explanation: Cell toxicity / % cell viability by flow cytometry (cells in total events v. untreated)
# Type: cell-based, Human
# Conditions: human, HeLa cells; HeLa; Protocol B; shuttle 50 μM; GFP-NLS 5 μM; 10 seconds; read-out: Cell viability (%) (±St. Dev.; n = 3), FIG. 29A
Where no end group is shown, it is not given here.

Chain Sequence	viability at 10 s, 50 µM, %
HHHHHHKKALLALALHHLAHLALHLALALKKAYARAAARQARA [His-LAH4-PTD4]	98
YARAAARQARAWEAKLAKALAKALAKHLAKALAKALKACEA [PTD4-KALA]	91.4
YGRKKRRQRRRCWEAKLAKALAKALAKHLAKALAKALKACEA (cysteines drawn unpaired) [TAT-KALA]	95.6

====

# Assay Explanation: Cell toxicity / % cell viability by flow cytometry (cells in total events v. untreated)
# Type: cell-based, Human
# Conditions: human, HeLa cells
Where no end group is shown, it is not given here.

Chain Sequence	viability at 10 s, 50 µM / %
WEAKLAKALAKALAKHLAKALAKALKACEA [KALA, reference compound]	84
LIRLWSHLIHIWFQNRRLKWKKKYARAAARQARA [EB1-PTD4]	39
HHHHHHYARAAARQARA [His-PTD4, reference compound]	96.5

====

# Assay Explanation: Cell toxicity / % cell viability by flow cytometry (cells in total events v. untreated)
# Type: cell-based, Human
# Conditions: human, HeLa cells; HeLa; Protocol B; shuttle 10 μM; GFP-NLS 5 μM; incubation 5 min; read-out: Cell viability (%) (±St. Dev.; n = 3), FIG. 29G
Where no end group is shown, it is not given here.
Measured Property: viability at 5 min, 10 µM

Chain Sequence	Data Value
YARAAARQARAWEAKLAKALAKALAKHLAKALAKALKACEA [PTD4-KALA]	82.4%

====

# Assay Explanation: Cell toxicity / % cell viability by flow cytometry (cells in total events v. untreated)
# Assay type: cell-based, Human
# Conditions: human, HeLa cells, Cell viability (%) (±St. Dev.; n = 3), FIG. 22B; HeLa; Protocol B; shuttle 25 μM; GFP-NLS 5 μM; 10 seconds
Where no end group is shown, it is not given here.
Measured Property: viability at 10 s, 25 µM (%)

Chain Sequence	Measured Property	Data Value
HHHHHHKWKLFKKIGAVLKVLTTGYARAAARQARA [His-CM18-PTD4]	viability at 10 s, 25 µM	95.3

====

Listed sequences paired with reported viability at 1 min, 20 µM
# Assay Explanation: Cell toxicity / % cell viability by flow cytometry (cells in total events v. untreated)
# Format: cell-based, Human
# Conditions: human, HeLa cells, Cell viability (%) (±St. Dev.; n = 3), FIG. 29I; HeLa; Protocol B; shuttle 20 μM; GFP-NLS 5 μM; 1 minute; read-out: Cell viability (%) (±St. Dev.; n = 3), FIG. 29I
Where no end group is shown, it is not given here.

Chain Sequence	Output Unit	viability at 1 min, 20 µM
KWKLFKKIGAVLKVLTTGHHHHHHYARAAARQARA [CM18-His-PTD4]	%	57.7
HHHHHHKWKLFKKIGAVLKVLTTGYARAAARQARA [His-CM18-PTD4]	%	81.6
KWKLFKKIGAVLKVLTTGGGSYARAAARQARA [CM18-L1-PTD4]	%	50.1
HHHHHHKWKLFKKIGAVLKVLTTGYARAAARQARACCCCCC (cysteines drawn unpaired) [His-CM18-PTD4-6Cys]	%	62
HHHHHHHHHHHHKWKLFKKIGAVLKVLTTGYARAAARQARA [12His-CM18-PTD4]	%	33.4

====

# Assay Explanation: Cell toxicity / % cell viability by flow cytometry (cells in total events v. untreated)
# Format: cell-based, Human
# Conditions: human, HeLa cells, Cell viability (%) (±St. Dev.; n = 3), FIG. 29A; HeLa; Protocol B; shuttle 50 μM; GFP-NLS 5 μM; 10 seconds; read-out: Cell viability (%) (±St. Dev.; n = 3), FIG. 29A
Where no end group is shown, it is not given here.
Measured Property: viability at 10 s, 50 µM (%)

Chain Sequence	Data Value
HHHHHHKWKLFKKIGAVLKVLTTGGWTLNSAGYLLKINLKALAALAKKIL [His-CM18-Transportan (TPT)]	41.3
HHHHHHKWKLFKKIGAVLKVLTTGYGRKKRRQRRR [His-CM18-TAT]	35.2
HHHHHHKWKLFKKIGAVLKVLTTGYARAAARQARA [His-CM18-PTD4]	92
YGRKKRRQRRRCKWKLFKKIGAVLKVLTTG [TAT-CM18]	23.5
HHHHHHKWKLFKKIGAVLKVLTTGRRRRRRRRR [His-CM18-9Arg]	45.8

====

# Assay Explanation: Cell toxicity / % cell viability by flow cytometry (cells in total events v. untreated)
# Type: cell-based, Human
# Conditions: human, HeLa cells, Cell viability (%) (±St. Dev.; n = 3), FIG. 13B; HeLa; GFP-NLS 5 μM; shuttle 0.5 μM; 1 hour; read-out: Cell viability (%) (±St. Dev.; n = 3), FIG. 13B
Where no end group is shown, it is not given here.

Chain Sequence	viability at 1 h, 0.5 µM
KWKLFKKIGAVLKVLTTGYGRKKRRQRRRC [CM18-TAT-Cys]	87.6%

====

# Assay Explanation: Cell toxicity / % cell viability by flow cytometry (cells in total events v. untreated)
# Format: cell-based, human
# Conditions: human, THP-1 cells, Cell viability (%) (±St. Dev.; n = 3); THP-1; Protocol C; shuttle 1 μM; GFP-NLS 5 μM; incubation time 15 sec; read-out: Cell viability (%) (±St. Dev.; n = 3)
Where no end group is shown, it is not given here.

Chain Sequence	viability at 15 s, 1 µM / %
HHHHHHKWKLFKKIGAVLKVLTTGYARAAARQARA [His-CM18-PTD4]	90

====

# Assay Explanation: Cell toxicity / % cell viability by flow cytometry (cells in total events v. untreated)
# Assay type: cell-based, Human
# Conditions: human, HeLa cells, Cell viability (%) (±St. Dev.; n = 3), FIG. 29B; HeLa; Protocol B; shuttle 10 μM; GFP-NLS 5 μM; incubation 2 min.; read-out: Cell viability (%) (±St. Dev.; n = 3), FIG. 29B
Where no end group is shown, it is not given here.
Measured Property: viability at 2 min, 10 µM (%)

Chain Sequence	Data Value
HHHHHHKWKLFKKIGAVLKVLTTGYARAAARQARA [His-CM18-PTD4]	80.9

====

# Assay Explanation: Cell toxicity / % cell viability by flow cytometry (cells in total events v. untreated)
# Format: cell-based, Human
# Conditions: human, HeLa cells, Cell viability (%) (±St. Dev.; n = 3), FIG. 29G; HeLa; Protocol B; shuttle 10 μM; GFP-NLS 5 μM; incubation 5 min; read-out: Cell viability (%) (±St. Dev.; n = 3), FIG. 29G
Where no end group is shown, it is not given here.
Measured Property: viability at 5 min, 10 µM (%)

Chain Sequence	Output Unit	Data Value
HHHHHHKWKLFKKIGAVLKVLTTGYARAAARQARAHHHHHH [His-CM18-PTD4-His]	%	41.2
